# Tested on: SF-295 CNS
# Assay comment: NCI tumour cell line growth inhibition, 48 h
Attribute: TGI

Compound	Quantity	Meas value
CCN(CC)CCOC(NC(C)=O)(c1ccccc1)c1ccccc1	TGI	> 100 µM
O=C1OC(=O)C(c2c[nH]c3ccccc23)=C1c1c[nH]c2ccccc12	TGI	> 25 µM
Cc1ccc(/C=C2\CN(C(=O)OC(C)(C)C)C/C(=C\c3ccc(C)cc3)C2=O)cc1	TGI	> 100 µM
CCCCCCCCCc1cc(=O)c2ccc(OCc3ccccc3)cc2o1	TGI	> 100 µM
COc1nc(NC2OCC(OC(C)=O)C(OC(C)=O)C2OC(C)=O)c(N=CC=Nc2c(NC3OCC(OC(C)=O)C(OC(C)=O)C3OC(C)=O)nc(OC)n(C)c2=O)c(=O)n1C (centres undefined)	TGI	> 100 µM

Lab entry: SF-295 CNS assay, compound Nc1c(C(=O)Nc2cccc([N+](=O)[O-])c2)sc2nc3c(cc12)C(O)CCC3 (centres undefined) , TGI = > 54 µM

Lab entry: SF-295 CNS assay, compound `COCOc1ccc(OC)cc1` , TGI = > 100 µM

Lab entry: SF-295 CNS assay, compound `CC(C)=C[C@@H]1C[C@H](n2cc(C)c(=O)[nH]c2=O)ON1CCO` , TGI = > 100 µM

Lab entry: SF-295 CNS assay, compound `O=C(CC(=O)CC(O)(C(F)(F)F)C(F)(F)F)CC(O)(C(F)(F)F)C(F)(F)F` , TGI = > 10 µM

Lab entry: SF-295 CNS assay, compound CN(C(=O)C12C3C4C5C3C1(C(=O)O)C5C42)C(C)(C)C (centres undefined) , TGI = > 100 µM

###

# Tested on: 786-0 renal
# Assay comment: NCI tumour cell line growth inhibition, 48 h
Quantity: TGI

Example results:
Smiles structure	TGI
O=C(CC(=O)CC(O)(C(F)(F)F)C(F)(F)F)CC(O)(C(F)(F)F)C(F)(F)F	> 10 µM
CCN(CC)CCOC(NC(C)=O)(c1ccccc1)c1ccccc1	> 100 µM
OC[C@@H](O)[C@H]1NC[C@@H](O)[C@H]1O	> 100 µM

Let us examine a further case.
Value of measured TGI for the entry `O=C(Cn1ccc(=O)[nH]c1=O)Nc1ccc(C(=O)O)c(O)c1` : > 100 µM

###

Attribute: TGI
# Test system: SF-539 CNS
# Assay comment: NCI tumour cell line growth inhibition, 48 h

Molecule	TGI
Cc1sc(C(=O)Nc2cc(C(=O)NCCCN(C)C)n(C)c2)cc1NC(=O)CCCN1C(=O)c2cccc3cccc(c23)C1=O	> 100 µM
CCCCCCCCCC[C@H](O)[C@H]1CC[C@H]([C@H]2CC[C@H]([C@H](O)CC[C@H](O)CCCCCCC[C@@H](O)CC3=C[C@H](C)OC3=O)O2)O1	> 100 µM
CC(=O)NC(CCCNCc1ccccc1)C(=O)NCc1ccccc1 (stereo not given)	> 100 µM
OC[C@@H](O)[C@H]1NC[C@@H](O)[C@H]1O	> 100 µM

Let us examine a further case.
Value of measured TGI for the entry `CC(C)(C)NC(=O)[C@H]1CC[C@H]2[C@@H]3CC=C4NC(=O)CC[C@]4(C)[C@H]3CC[C@]12C` : > 100 µM
